Target: Cbl-b (Homo sapiens (Human))
Assay: Cbl-b LCK Ub TR-FRET assay (Cbl-b Lck HTRF)
Format: biochemical
Conditions: ratio C-cbl Lck HTRF IC50 / Cbl-b Lck HTRF IC50
Measured fold-selectivity (Cbl-b over C-cbl) of individual entries

compound	quantity measured	meas value
Cn1cnnc1[C@H](c1cccc(N2Cc3c(cc(CNC4(C)CCC4)cc3C(F)(F)F)C2=O)c1)C1(O)COC1 (single isomer, unassigned)	fold-selectivity (Cbl-b over C-cbl)	2.2x
CO[C@](c1cccc(N2Cc3c(cc(CNC4(C)CCC4)cc3C(F)(F)F)C2=O)c1)(c1nncn1C)C1CCC1 (single isomer, unassigned)	fold-selectivity (Cbl-b over C-cbl)	3.6x
C=CCNc1cc(N2Cc3c(cc(CNC4(C)CCC4)cc3C(F)(F)F)C2=O)cc([C@]2(c3nncn3C)C[C@@H](OC)C2)c1	fold-selectivity (Cbl-b over C-cbl)	3.7x
Cn1cnnc1C1(c2cccc(N3Cc4c(cc([C@@H](CO)NC5(C)CCC5)cc4C(F)(F)F)C3=O)c2)CCC1 (single isomer, unassigned)	fold-selectivity (Cbl-b over C-cbl)	0.82x

Consider now this further compound.
For reference, reported fold-selectivity (Cbl-b over C-cbl) for `Cn1cnnc1C1(c2cccc(N3Cc4c(cc(CNC5(C)CCC5)cc4C(F)(F)F)C3=O)c2)CC2(CC(F)(F)C2)C1` stands at 6.0x

* * *

Reported IC50 values follow for various compounds
Biological target: Cbl-b (Homo sapiens (Human), UniProt Q13191)
Assay: Cbl-b LCK Ub TR-FRET assay (Cbl-b Lck HTRF)
Type: biochemical
Settings: Cbl-b LCK Ub TR-FRET
Your answer should be a plain number; it is taken to be in nM.

compound	IC50 (nM)
Cn1cnnc1[C@@H](c1cccc(N2Cc3c(cc(CNC4(C)CCC4)cc3C(F)(F)F)C2=O)c1)C1CCCCC1 [Compound 250]	3100

The compound Cn1cnnc1[C@H](c1cccc(N2Cc3c(cc(CNC4(C)CCC4)cc3C(F)(F)F)C2=O)c1)[C@H]1C[C@H](C#N)C1 (single isomer, unassigned) [Compound 142] showed IC50 equal to 200

* * *

Target: Cbl-b (Homo sapiens (Human), UniProt Q13191)
Assay: Cbl-b LCK Ub TR-FRET assay (Cbl-b Lck HTRF)
Format: biochemical
Conditions: ratio C-cbl Lck HTRF IC50 / Cbl-b Lck HTRF IC50
Each entry below lists one item and its recorded fold-selectivity (Cbl-b over C-cbl) value.
Please state the figure in x; there is no need to write the unit.

// below: answered compounds
compound	output unit	fold-selectivity (Cbl-b over C-cbl)
C[C@H](NC1(C)CCC1)c1cc(Cl)c2c(c1)C(=O)N(c1cccc([C@]3(c4nncn4C)C[C@@H](F)C3)c1)C2 (single isomer, unassigned) [Compound 289]	x	2.4
CCNc1cc([C@]2(c3nncn3C)C[C@@H](C)C2)cc(N2Cc3c(cc(CNC4(C)CCC4)cc3C(F)(F)F)C2=O)c1F [Compound 337]	x	1.2
CC[C@H]1C[C@@](c2cccc(N3Cc4c(Cl)cc(CNC5(C)CCC5)cc4C3=O)c2)(c2nncn2C)C1 [Compound 374]	x	2.0
Cn1cnnc1C(F)(c1cccc(N2Cc3c(cc(CNC4(C)CCC4)cc3C(F)(F)F)C2=O)c1)C1COC1 (single isomer, unassigned) [Compound 151]	x	2.1

Entry Cn1cnnc1[C@H](c1ccccc1)c1cccc(N2Cc3c(Cl)cc(CNC4(C)CCC4)cc3C2=O)c1 (single isomer, unassigned) [Compound 158] , fold-selectivity (Cbl-b over C-cbl) reported as 3.6

Sure, the documented fold-selectivity (Cbl-b over C-cbl) for CO[C@H]1C[C@@](c2cc(NC3CCCC3)nc(N3Cc4c(cc(CNC5(C)CCC5)cc4C(F)(F)F)C3=O)c2)(c2nncn2C)C1 [Compound 8] is 3.9

// fold-selectivity (Cbl-b over C-cbl) lookup, compound = Cn1cnnc1[C@@H](CC1CCOCC1)c1cccc(N2Cc3c(cc(CNC4(C)CCC4)cc3C(F)(F)F)C2=O)c1 [Compound 253] , result: 1.1

compound Cn1cnnc1[C@@H](C[C@H]1CCOC1)c1cccc(N2Cc3c(cc(CNC4(C)CCC4)cc3C(F)(F)F)C2=O)c1 [Compound 277] , fold-selectivity (Cbl-b over C-cbl) observed: 2.3

In plain terms, Cn1cnnc1[C@H](c1cccc(N2Cc3c(Cl)cc(CNC4(C)CCC4)cc3C2=O)c1)C1COC1 (single isomer, unassigned) [Compound 271] has a documented fold-selectivity (Cbl-b over C-cbl) of 2.6

Quick note, fold-selectivity (Cbl-b over C-cbl) for COc1cc(N2Cc3c(cc(CNC4(C)CCC4)cc3C(F)(F)F)C2=O)cc([C@]2(c3nncn3C)C[C@@H](OC)C2)c1 [Compound 200] landed at 1.7

Looking up Cn1cnnc1[C@H](c1cccc(N2Cc3c(cc(CNC4(C)CCC4)cc3C(F)(F)F)C2=O)c1)C1CC(OC(F)(F)F)C1 (single isomer, unassigned) [Compound 396] , I see its fold-selectivity (Cbl-b over C-cbl) listed as 1.7

Per the records, this compound ( Cn1cnnc1[C@]1(c2cccc(N3Cc4c(cc(CNC5(C)CCC5)cc4C(F)(F)F)C3=O)c2)C[C@H](CF)C1 [Compound 102] ) has fold-selectivity (Cbl-b over C-cbl) equal to 1.5

Note to self: fold-selectivity (Cbl-b over C-cbl) recorded for CO[C@H]1C[C@](O)(C(c2cccc(N3Cc4c(cc(CNC5(C)CCC5)cc4C(F)(F)F)C3=O)c2)c2nncn2C)C1 (single isomer, unassigned) [Compound 368] was 1.6

compound Cn1cnnc1[C@](F)(c1ccccc1)c1cccc(N2Cc3c(Cl)cc(CNC4(C)CCC4)cc3C2=O)c1 (single isomer, unassigned) [Compound 321] , fold-selectivity (Cbl-b over C-cbl) observed: 1.0

Looking up CCOC1CC([C@H](c2cccc(N3Cc4c(cc(CNC5(C)CCC5)cc4C(F)(F)F)C3=O)c2)c2nncn2C)C1 (single isomer, unassigned) [Compound 264] , I found its fold-selectivity (Cbl-b over C-cbl) recorded as 3.9

* * *

Biological target: Human Cbl-b (residues 40-426) (Homo sapiens (Human), UniProt Q13191)
Sequence (Q13191 40-426): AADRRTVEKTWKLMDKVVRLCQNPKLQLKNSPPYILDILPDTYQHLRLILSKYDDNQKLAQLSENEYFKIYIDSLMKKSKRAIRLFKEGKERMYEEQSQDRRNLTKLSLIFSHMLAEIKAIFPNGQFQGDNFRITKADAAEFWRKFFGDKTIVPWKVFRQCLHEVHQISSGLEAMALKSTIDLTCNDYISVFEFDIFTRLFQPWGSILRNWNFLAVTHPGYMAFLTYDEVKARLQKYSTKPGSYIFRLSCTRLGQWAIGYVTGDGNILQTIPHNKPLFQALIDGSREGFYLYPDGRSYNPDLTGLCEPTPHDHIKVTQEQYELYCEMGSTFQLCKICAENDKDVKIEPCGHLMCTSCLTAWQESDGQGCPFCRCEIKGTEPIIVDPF
Assay: Cbl-b SPR assay
Assay type: binding
Conditions: C-cbl SPR Kd vs Cbl-b SPR Kd
quantity measured: Fold of selectivity (×)
Please give a number only; it is taken to be in ×.

Fold of selectivity reading for C[C@@H](c1cccc(N2Cc3c(cc(CNC4(C)CCC4)cc3C(F)(F)F)C2=O)c1)c1nncn1C (single isomer, unassigned) : 2.1

The value of Fold of selectivity measured for the molecule Cn1cnnc1[C@@H](c1cccc(N2Cc3c(cc([C@H](NC4(C)CCC4)C4CCC4)cc3C(F)(F)F)C2=O)c1)C1COC1 (single isomer, unassigned) turned out to be 3.6

* * *

Molecular target: Cbl-b (Homo sapiens (Human))
Test: Cbl-b LCK Ub TR-FRET assay (Cbl-b Lck HTRF)
Assay type: biochemical
Details: Cbl-b LCK Ub TR-FRET, Example 121
quantity measured: log10 IC50 (log10 of the value in nM)
Note: values are log10 of IC50 expressed in nM.

Look over these answered cases.
molecule	meas value
CO[C@H]1C[C@](c2cccc(N3Cc4c(cc(CNCC5(F)CC5)cc4C(F)(F)F)C3=O)c2)(c2nncn2C)C1	1.26
CO[C@H]1C[C@](c2cccc(N3Cc4c(cc(CNCCOC(F)F)cc4C(F)(F)F)C3=O)c2)(c2nncn2C)C1	0.92
CO[C@H]1C[C@](c2cccc(N3Cc4c(cc(CN5CCC5)cc4C(F)(F)F)C3=O)c2)(c2nncn2C)C1	1.53

Note to self: log10 IC50 recorded for `CO[C@H]1C[C@](c2cccc(N3Cc4c(cc(CN5CCCCCC5)cc4C(F)(F)F)C3=O)c2)(c2nncn2C)C1` was 1.74

// log10 IC50 lookup, molecule = CO[C@H]1C[C@](c2cccc(N3Cc4c(cc(CNC5CC(C(F)F)C5)cc4C(F)(F)F)C3=O)c2)(c2nncn2C)C1 (stereo partly shown) , result: 0.92

// sample `CO[C@H]1C[C@](c2cccc(N3Cc4c(cc(CN[C@@H](C)C5CCC5)cc4C(F)(F)F)C3=O)c2)(c2nncn2C)C1` , its log10 IC50 was 0.64

log10 IC50 measured on Cn1cnnc1C(F)(c1cccc(N2Cc3c(cc(CNC4(C)CCC4)cc3C(F)(F)F)C2=O)c1)C1(F)COC1 (stereo in doubt) = 0.68

Value of measured log10 IC50 for the entry `CC[C@H]1C[C@](c2cccc(N3Cc4c(cc(CNC5(C)CCC5)cc4C(F)(F)F)C3=O)c2)(c2nncn2C)C1` : 0.94

log10 IC50 for Cn1cnnc1[C@H](c1cccc(N2Cc3c(cc([C@@H](NC4(C)CCC4)C4CC4)cc3C(F)(F)F)C2=O)c1)C1COC1 (single isomer, unassigned) is 3.85

Lookup result for `CO[C@H]1C[C@](c2cccc(N3Cc4ccc(CNC5(C)CCC5)cc4C3=O)c2)(c2nncn2C)C1` ; measured log10 IC50: 2.34

Documented log10 IC50 of CO[C@H]1C[C@](c2cccc(N3Cc4c(cc(CNC5CC(C#N)C5)cc4C(F)(F)F)C3=O)c2)(c2nncn2C)C1 (stereo partly shown) : 0.86

The molecule identified as `Cn1cnnc1[C@]1(c2cccc(N3Cc4c(Cl)cc(CNC5(C)CCC5)cc4C3=O)c2)C[C@@H](Cl)C1` registered its log10 IC50 at 0.62

The molecule `CO[C@H]1C[C@](c2cccc(N3Cc4c(cc(CN[C@@H]5C[C@H]5C)cc4C(F)(F)F)C3=O)c2)(c2nncn2C)C1` showed log10 IC50 equal to 0.97
